# PROTOCOL: growth inhibitors of tim10-1 mutant yeast, primary screen, luminescence, uHTS (AID 463190);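 also: mutant grown at 25 °C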
# APPLIED_CONDITIONS: S. cerevisiae tim10-1 ts strain growth, BacTiter-Glo, 24 h; at 20 µM; active compounds read high
Among all 330,000 compounds or so, about 7,300 (2.2%) were called active. The list comes from a sample in which actives are over-represented; it also holds close analogues and randomly drawn compounds.
Is inhibition at least 10%? Then yes. If not, no.

1) COc1ccc(N(CC(=O)N/N=C/c2cccs2)S(=O)(=O)c2ccc(OC)c(OC)c2)cc1	yes
2) CCOC(=O)c1cc2cc(-c3c(C(=O)OCC)oc4cc(O)cc(O)c4c3=O)ccc2o1	yes
3) NC(=O)N/N=C\c1cccs1	no
4) CCCC(NC(=O)c1ccco1)c1nc2ccccc2[nH]1 (stereo unspecified)	yes

Req: hey, is inhibition for this one >= 10%? O=C(Nc1cccc([N+](=O)[O-])c1)N1CCc2ccccc2C1
Resp: yes

Req: What about this molecule? Cc1ccccc1OCC(=O)NCC(=O)OCC(=O)c1ccc2ccccc2c1
Resp: yes
